# TARGET OF ASSAY: human GPR40 (Homo sapiens, UniProt O14842)
# Construct: expressed in transfected cells; host or cells: HEK cells stably expressing the aequorin reporter
# Sequence (O14842 whole entry): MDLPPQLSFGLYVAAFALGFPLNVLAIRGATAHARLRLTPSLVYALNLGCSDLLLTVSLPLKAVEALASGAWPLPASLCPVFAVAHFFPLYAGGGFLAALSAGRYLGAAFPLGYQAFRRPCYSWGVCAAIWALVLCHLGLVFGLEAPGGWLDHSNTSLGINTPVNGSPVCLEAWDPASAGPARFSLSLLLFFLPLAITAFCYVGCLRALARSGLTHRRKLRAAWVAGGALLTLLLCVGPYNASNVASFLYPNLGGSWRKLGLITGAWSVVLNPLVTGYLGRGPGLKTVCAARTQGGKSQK
# ASSAY EXPLANATION: Inositol Phosphate Turnover (IP1) Assay 2
# Type: cell-based
# MEASUREMENT CONTEXT: HEK cells stably expressing human GPR40; 15,000 cells per well; compound acoustically transferred; CisBio IP-One kit
ATTRIBUTE MEASURED: EC50 (nM)

Answered examples (5):
- COMPOUND: "COc1cc(-c2ccc([C@@H]3CCc4ccc([C@H](C5CC5)[C@H](C)C(=O)O)cc4O3)cc2CN2CCC(C)(C)CC2)c(F)cn1"
  EC50, nM: 1.8
- COMPOUND: "CCc1ccc(F)c(-c2ccc(C3CCc4ccc([C@H](C5CC5)[C@H](C)C(=O)O)cc4O3)cc2CN2CCCC2)c1 (mixture of isomers)"
  EC50, nM: 17
- COMPOUND: "COc1cc(-c2ccc([C@H]3CCc4ccc([C@H](C5CC5)[C@H](C)C(=O)O)cc4O3)cc2CN2CCCC2(C)C)c(F)cn1"
  EC50, nM: 1.8
- COMPOUND: "COc1cc(-c2ccc([C@@H]3CCc4ccc([C@H](C5CC5)[C@H](C)C(=O)O)cc4O3)cc2CN2CCCC[C@H]2C)c(F)cn1"
  EC50, nM: 1.1
- COMPOUND: "COc1cc(-c2ccc(C3CCc4ccc([C@H](C5CC5)[C@H](C)C(=O)O)cc4O3)cc2CN2CCC(OC)CC2)c(F)cn1 (mixture of isomers)"
  EC50, nM: 12

(A) COc1cc(-c2ccc(C3CCc4ccc([C@H](C5CC5)[C@H](C)C(=O)O)cc4O3)cc2CN2CC(C)(C#N)C2)c(F)cn1 (mixture of isomers)
(B) COc1cc(-c2ccc(C3CCc4ccc([C@H](C5CC5)[C@H](C)C(=O)O)cc4O3)cc2CN2CC(C)C2)c(F)cn1 (mixture of isomers)
(C) COc1cc(-c2ccc(C3CCc4ccc([C@H](C5CC5)[C@H](C)C(=O)O)cc4O3)cc2CN(C)C)c(F)cn1 (single isomer, unassigned) [Example 1b]
Task: Number of compounds to sort: 3. Sort criterion: EC50, ascending. Would you mind listing the labels in the order requested?
Result: C, A, B
(C: 2.9 nM, A: 15 nM, B: 22 nM)

(A) COc1cc(-c2ccc(C3CCc4ccc([C@H](C5CCC5)[C@H](C)C(=O)O)cc4O3)cc2CN2CCCC2)c(F)cn1 (single isomer, unassigned) [Example 92]
(B) COc1cc(-c2ccc(C3CCc4ccc([C@H](C5CC5)[C@H](C)C(=O)O)cc4O3)cc2CN2CCN(C)CC2)c(F)cn1 (mixture of isomers)
(C) COC[C@@H]1CCCN1Cc1cc([C@@H]2CCc3ccc([C@H](C4CC4)[C@H](C)C(=O)O)cc3O2)ccc1-c1cc(OC)ncc1F
Task: Reorder: EC50, max to min. Would you mind listing the labels in the order requested?
Result: B, A, C
(B: 210 nM, A: 4 nM, C: 0.8 nM)

(P) CCN(CC)Cc1cc([C@@H]2CCc3ccc([C@H](C4CC4)[C@H](C)C(=O)O)cc3O2)ccc1-c1cc(OC)ncc1F
(Q) COc1cc(-c2ccc(C3CCc4ccc([C@H](C5CC5)[C@H](C)C(=O)O)cc4O3)cc2CN2CCC2C)c(F)cn1 (some centres unmarked)
(R) COc1cc(-c2ccc([C@H]3CCc4ccc([C@H](C5CC5)[C@H](C)C(=O)O)cc4O3)cc2CN2CCCC(C)(C)C2)c(F)cn1
(S) COc1cc(-c2ccc([C@@H]3CCc4ccc([C@H](C5CC5)[C@H](C)C(=O)O)cc4O3)cc2CN2CCCC(C)(C)C2)c(F)cn1
(T) COc1cc(-c2ccc(C3CCc4ccc([C@H](C5CC5)[C@H](C)C(=O)O)cc4O3)cc2CN2CCOCC23CCC3)c(F)cn1 (mixture of isomers)
Task: Number of compounds to sort: 5. Sort criterion: EC50, ascending. Would you mind listing the labels in the order requested?
Result: S, T, R, P, Q
(S: 0.3 nM, T: 0.7 nM, R: 1.1 nM, P: 3.3 nM, Q: 7 nM)

(P) COc1cc(-c2ccc([C@@H]3CCc4ccc([C@H](C5CC5)[C@H](C)C(=O)O)cc4O3)cc2CN2CCCC[C@@H]2C)c(F)cn1
(Q) COc1cc(-c2ccc([C@@H]3CCc4ccc([C@H](C5CC5)[C@H](C)C(=O)O)cc4O3)cc2CN2CCCC2(C)C)c(F)cn1
Task: // max by EC50 over [ P , Q ] Your choice should be expressed through its label.
Result: Q

(a) COc1cc(-c2ccc(C3CCc4ccc([C@H](C5CC5)[C@H](C)C(=O)O)cc4O3)cc2CN2CC[C@@H](C(F)(F)F)C2)c(F)cn1 (single isomer, unassigned) [Example 27]
(b) COc1cc(-c2ccc(C3CCc4ccc([C@H](C5CC5)[C@H](C)C(=O)O)cc4O3)cc2CN2CCC(F)(F)C2)c(F)cn1 (single isomer, unassigned) [Example 31]
Task: // max by EC50 over [ a , b ] Your choice should be expressed through its label.
Result: a
(a: 1.5 nM, b: 0.95 nM)

* * *

# TARGET OF ASSAY: human GPR40 (Homo sapiens)
# Construct: expressed in transfected cells; host or cells: HEK cells stably expressing the aequorin reporter
# ASSAY EXPLANATION: Inositol Phosphate Turnover (IP1) Assay 3
# Assay type: cell-based
# MEASUREMENT CONTEXT: HEK cells stably expressing human GPR40
ATTRIBUTE MEASURED: EC50 (nM)

Answered examples (5):
- COMPOUND: "COc1cc(-c2ccc(C3CCc4ccc([C@H](C5CC5)[C@H](C)C(=O)O)cc4O3)c(CN3CCCC3(C)C)c2)ccn1 (single isomer, unassigned) [Example 111a]"
  TARGET OF ASSAY: "human GPR40 (Homo sapiens)"
  EC50 / nM: 3.2
- COMPOUND: "COc1cc(-c2cc(F)c(C3CCc4ccc([C@H](C5CC5)[C@H](C)C(=O)O)cc4O3)cc2CN2CCCCC23CC3)ccn1 (single isomer, unassigned) [Example 187]"
  TARGET OF ASSAY: "human GPR40 (Homo sapiens)"
  EC50 / nM: 0.4
- COMPOUND: "COc1cc(-c2ccc(C3CCc4ccc([C@H](C5CC5)[C@H](C)C(=O)O)cc4O3)cc2CN2CCCC2(C)C)ccn1 (stereo partly shown)"
  TARGET OF ASSAY: "human GPR40 (Homo sapiens)"
  EC50 / nM: 5.7
- COMPOUND: "COc1cc(-c2ccc(C3CCc4ccc([C@H](C5CC5)[C@H](C)C(=O)O)cc4O3)c(CN3CCC[C@@H]3C)c2)ccn1 (single isomer, unassigned) [Example 118a]"
  TARGET OF ASSAY: "human GPR40 (Homo sapiens)"
  EC50 / nM: 0.6
- COMPOUND: "COc1cc(-c2ccc(C3CCc4ccc([C@H](C5CCC5)[C@H](C)C(=O)O)cc4O3)cc2CN2CCCC2(C)C)c(F)cn1 (single isomer, unassigned) [Example 108]"
  TARGET OF ASSAY: "human GPR40 (Homo sapiens)"
  EC50 / nM: 0.1

(A) CCN(CC)C(C)c1cc(C2CCc3ccc([C@H](C4CC4)[C@H](C)C(=O)O)cc3O2)ccc1-c1cc(OC)ncc1F (single isomer, unassigned) [Example 244]
(B) CCOc1cc(-c2ccc(C3CCc4ccc([C@H](C5CC5)[C@H](C)C(=O)O)cc4O3)c(CN(C)C(C)(C)C)c2)c(F)cn1 (single isomer, unassigned) [Example 132a]
Task: // max by EC50 over [ A , B ] Your choice should be expressed through its label.
Result: B

(1) COc1cc(-c2ccc(C3CCc4ccc([C@H](C5CC5)[C@H](C)C(=O)O)c(F)c4O3)cc2CN2CCCCC2)c(F)cn1 (single isomer, unassigned) [Example 201]
(2) COc1cc(-c2ccc(C3CCc4ccc([C@H](C5CC5)[C@H](C)C(=O)O)cc4O3)c(CN3CCCC[C@H]3C)c2)c(F)cn1 (single isomer, unassigned) [Example 130b]
(3) COc1cc(-c2ccc(C3CCc4ccc([C@H](C5CC5)[C@H](C)C(=O)O)cc4O3)cc2CN2CCC(C)(C)C2)ccn1 (stereo partly shown)
(4) COc1cc(-c2ccc(C3CCc4ccc([C@H](C5CC5)[C@H](C)C(=O)O)c(F)c4O3)cc2CN2CCC[C@H]2C)c(F)cn1 (single isomer, unassigned) [Example 211]
Task: Reorder: EC50, max to min. Would you mind listing the labels in the order requested?
Result: 3, 1, 4, 2
(3: 7.4 nM, 1: 4.4 nM, 4: 2.1 nM, 2: 0.06 nM)

Hey, just so you know, these numbers are from patent US10968193B2.
